Each recorded value in this set is attributed to patent US12441754B2.

# testSystem: Galectin-1 (Homo sapiens)
# testDescription: fluorescence anisotropy assay, compound as inhibitor of galectin / fluorescein tagged saccharide probe interaction
# Type: binding
# Excerpt: Anal. Biochem. 334: 36-47, (Sörme et al., 2004) and Monovalent interactions of Galectin-1 By Salomonsson, Emma; Larumbe, Amaia; Tejler, Johan; Tullberg, Erik; Rydberg, Hanna; Sundin, Anders; Khabut, Areej; Frejd, Torbjorn; Lobsanov, Yuri D.; Rini, James M.; et al, From Biochemistry (2010), 49(44), 9518-9532, (Salomonsson et al., 2010).
measurementLabel: Kd (nM)

[[record]]
compound = "N#Cc1cc(Cl)cc(S[C@H]2O[C@H](CO)[C@H](O)[C@H](n3cc(-c4nc(Cl)cs4)nn3)[C@H]2O)c1 [Example 51]"
measurementlabel = "Kd"
units = "nM"
quantitativeresult = 250

[[record]]
compound = "OC[C@H]1O[C@H](Sc2cncc(Cl)c2)[C@H](O)[C@@H](n2cc(-c3nc(Cl)cs3)nn2)[C@H]1O [Example 48]"
measurementlabel = "Kd"
units = "nM"
quantitativeresult = 150


P = CO[C@@H]1[C@@H](n2cc(-c3csc(N)n3)nn2)[C@@H](O)[C@@H](CO)O[C@@H]1Sc1cc(Cl)cnc1C1=CCNCC1 [Example 24]
Q = CO[C@@H]1[C@@H](n2cc(-c3nccs3)nn2)[C@@H](O)[C@@H](CO)O[C@@H]1Sc1cc(Br)ccc1C#N [Example 56]
Query string: Which gives the smaller Kd number: P or Q ? // caller expects the label of the chosen entry
Result string: Q
(Q: 96 nM, P: 150 nM)

---

# testSystem: Galectin-1 (Homo sapiens, UniProt P09382)
# Sequence (P09382 whole entry): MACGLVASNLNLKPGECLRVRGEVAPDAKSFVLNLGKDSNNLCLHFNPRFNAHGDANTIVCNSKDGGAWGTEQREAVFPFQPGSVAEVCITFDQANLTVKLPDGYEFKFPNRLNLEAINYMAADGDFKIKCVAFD
# testDescription: fluorescence anisotropy assay, compound as inhibitor of galectin / fluorescein tagged saccharide probe interaction
# Assay type: binding
measurementLabel: Kd (nM)

[[record]]
chemicalstring = "N#Cc1ccc(S[C@@H]2C[C@@H](n3cc(-c4csc(O)n4)nn3)[C@@H](O)[C@@H](CO)O2)cc1Cl"
testsystem = "Galectin-1 (Homo sapiens, UniProt P09382)"
quantitativeresult = 210

[[record]]
chemicalstring = "CCO[C@@H]1[C@@H](n2cc(-c3csc(N)n3)nn2)[C@@H](O)[C@@H](CO)O[C@@H]1Sc1cc(Cl)cnc1C#N"
testsystem = "Galectin-1 (Homo sapiens, UniProt P09382)"
quantitativeresult = 440

[[record]]
chemicalstring = "C#Cc1cncc(S[C@H]2O[C@H](CO)[C@H](O)[C@H](n3cc(-c4nc(Cl)cs4)nn3)[C@H]2OC)c1"
testsystem = "Galectin-1 (Homo sapiens, UniProt P09382)"
quantitativeresult = 200

[[record]]
chemicalstring = "CCO[C@@H]1[C@@H](n2cc(-c3nc(Cl)cs3)nn2)[C@@H](O)[C@@H](CO)O[C@@H]1Sc1cc(Br)cnc1C(=O)N(C)C"
testsystem = "Galectin-1 (Homo sapiens, UniProt P09382)"
quantitativeresult = 8.5

[[record]]
chemicalstring = "Cc1cnc(C#N)c(S[C@H]2O[C@H](CO)[C@H](O)[C@H](n3cc(-c4nc(Cl)cs4)nn3)[C@H]2O)c1"
testsystem = "Galectin-1 (Homo sapiens, UniProt P09382)"
quantitativeresult = 830


I = CO[C@@H]1[C@@H](n2cc(-c3nc(Cl)cs3)nn2)[C@@H](O)[C@@H](CO)O[C@@H]1Sc1ccc2ncsc2c1
II = CO[C@@H]1[C@@H](n2cc(-c3csc(N)n3)nn2)[C@@H](O)[C@@H](CO)O[C@@H]1Sc1cc(Cl)cnc1-c1ncco1
III = CO[C@@H]1[C@@H](n2cc(-c3csc(N)n3)nn2)[C@@H](O)[C@@H](CO)O[C@@H]1Sc1cc(Cl)cnc1C
Query string: Sort by Kd, descending. Dear reader, please state the labels in the requested order.
Result string: III, I, II

1 = CO[C@@H]1[C@@H](n2cc(-c3csc(N)n3)nn2)[C@@H](O)[C@@H](CO)O[C@@H]1Sc1ccc(C#N)c(Cl)c1
2 = OC[C@H]1O[C@H](Sc2cc(Cl)cnc2-c2ncc[nH]2)[C@H](O)[C@@H](n2cc(-c3csc(O)n3)nn2)[C@H]1O
Query string: Sort 1 and 2 by Kd descending and give the first. Answer by stating the label of the chosen item.
Result string: 2

A = CO[C@@H]1[C@@H](n2cc(-c3nccs3)nn2)[C@@H](O)[C@@H](CO)O[C@@H]1Sc1cncc(Br)c1
B = N#Cc1ncc(Cl)cc1S[C@H]1O[C@H](CO)[C@H](O)[C@H](n2cc(-c3csc(N)n3)nn2)[C@H]1OCc1cc(F)c(O)c(F)c1
C = OC[C@H]1O[C@H](Sc2cncc(Br)c2)[C@H](O)[C@@H](n2cc(-c3nc(Cl)cs3)nn2)[C@H]1O
Query string: Output the entries ranked by Kd from maximum down to minimum. Put the labels in the requested order and write them down.
Result string: A, C, B
(A: 230 nM, C: 150 nM, B: 24 nM)
